Test system: Staphylococcus aureus
assay-explanation: Antibacterial activity of compound was measured against Staphylococcus aureus A9537 organism
Format: functional
reported-metric: MIC (µg/mL)
// return numeric value only (unit: µg/mL, not printed)

Q: Name the reported MIC value associated with the compound COc1cccc(OC)c1C(=O)N[C@@H]1C(=O)N2[C@@H]1SC(C)(C)[C@@H]2C(=O)O [METHICILLIN]
Ans: 0.5

Q: Entry C[S+]([O-])/C=C/C1=C(C(=O)O)N2C(=O)[C@@H](NC(=O)Cc3cccs3)[C@H]2SC1 (stereo not given in full) please
Ans: 0.03

Q: Entry O=C(Cc1cccs1)N[C@@H]1C(=O)N2C(C(=O)O)=C(/C=C/[S+]([O-])c3ccc([N+](=O)[O-])cc3)CS[C@H]12 (stereo not given in full) please
Ans: 0.5

Q: Entry CS(=O)(=O)/C=C/C1=C(C(=O)O)N2C(=O)[C@@H](NC(=O)Cc3cccs3)[C@H]2SC1 please
Ans: 0.06

Q: Entry Cc1ccc([S+]([O-])/C=C/C2=C(C(=O)O)N3C(=O)[C@@H](NC(=O)Cc4cccs4)[C@H]3SC2)cc1 (stereo not given in full) please
Ans: 0.25
